# TESTED_ON: T1, hPRLR.mFc (soluble dimeric human PRLR) (human)
# T1 construct: dimeric PRLR construct
# T1 chain: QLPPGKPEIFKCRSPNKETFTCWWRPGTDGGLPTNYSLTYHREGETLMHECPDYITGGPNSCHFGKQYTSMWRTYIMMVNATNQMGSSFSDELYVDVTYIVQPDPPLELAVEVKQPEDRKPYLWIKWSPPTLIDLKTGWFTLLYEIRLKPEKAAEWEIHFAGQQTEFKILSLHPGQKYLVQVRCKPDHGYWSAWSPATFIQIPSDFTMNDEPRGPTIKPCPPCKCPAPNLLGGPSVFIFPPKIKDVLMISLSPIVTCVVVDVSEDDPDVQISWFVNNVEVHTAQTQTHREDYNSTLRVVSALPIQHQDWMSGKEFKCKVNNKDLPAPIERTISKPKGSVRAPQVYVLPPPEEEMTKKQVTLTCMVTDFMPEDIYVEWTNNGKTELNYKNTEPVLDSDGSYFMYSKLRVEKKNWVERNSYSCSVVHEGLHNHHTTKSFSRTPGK
# MEASUREMENT_PROTOCOL: SPR Biacore, 25 C, mAb capture
Response key: true (1) means kon >= 400000 M⁻¹ s⁻¹; false (0) means kon < 400000 M⁻¹ s⁻¹.

Solved cases (8 shown):
>  <BINDER>
H1H6966N (antibody, human IgG1, V domains shown, Tested with human IgG1 Fc (H1H); also called H2M6966N) VH: QVQLVQSGAEVQKPGASVKVSCKVSGYTLTALSIHWVRQAPGKGLEWMGNFDPGDGETIHAQKFQGRVTMTGDTSTDTAYMELSSLRSEDTAVYYCVGVTFDYWGQGTLVTVSS VL: EIVMTQSPATLSVSPGERATLSCRASQSVASNLAWYQQKPGQAPRLLLYGASTRATGIPARFSGSGSGTEFTLTISSLQSEDFALYYCQHYNNWPLTFGGGTKVEIK

>  <ANSWER_LABEL>
true (1)

$$$$
>  <BINDER>
H1H6800P (antibody, human IgG1, V domains shown, Human IgG1 Fc (H1H)) VH: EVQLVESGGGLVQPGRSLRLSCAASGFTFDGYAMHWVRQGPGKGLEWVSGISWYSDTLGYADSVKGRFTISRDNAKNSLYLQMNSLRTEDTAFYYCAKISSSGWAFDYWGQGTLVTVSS VL: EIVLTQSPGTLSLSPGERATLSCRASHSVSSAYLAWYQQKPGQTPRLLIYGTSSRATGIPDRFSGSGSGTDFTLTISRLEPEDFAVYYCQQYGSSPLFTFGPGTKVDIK

>  <ANSWER_LABEL>
true (1)

$$$$
>  <BINDER>
H1H6781P (antibody, human IgG1, V domains shown, Human IgG1 Fc (H1H)) VH: EVQLVESGGDLVQPGESLRLSCTASGFTFNSYEMNWVRQAPGKGLEWVSYISSSGGTKYYVDSVKGRFTISRDNAKKSLYLQMNSLRADDTALYYCARLNGVDVFDIWGQGTMVTVSS VL: DIQMTQSPSSLSASVGDRVTITCRASQDIFNYLAWFQQKPGKVPELLISAASTLQSGVPSRFSGSGSGTYFTLTISSLQPEDIATYYCQRYNSAPLTFGGGTKVEIK

>  <ANSWER_LABEL>
false (0)

$$$$
>  <BINDER>
H1H6782P (antibody, human IgG1, V domains shown, Human IgG1 Fc (H1H)) VH: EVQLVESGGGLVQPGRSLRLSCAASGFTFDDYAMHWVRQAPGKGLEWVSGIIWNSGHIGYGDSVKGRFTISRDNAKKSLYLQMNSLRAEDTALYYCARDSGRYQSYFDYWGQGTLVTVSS VL: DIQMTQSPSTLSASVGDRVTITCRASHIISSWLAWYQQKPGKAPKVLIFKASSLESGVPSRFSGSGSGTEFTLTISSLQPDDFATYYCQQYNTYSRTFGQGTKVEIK

>  <ANSWER_LABEL>
false (0)

$$$$
>  <BINDER>
H1H6785P (antibody, human IgG1, V domains shown, Human IgG1 Fc (H1H)) VH: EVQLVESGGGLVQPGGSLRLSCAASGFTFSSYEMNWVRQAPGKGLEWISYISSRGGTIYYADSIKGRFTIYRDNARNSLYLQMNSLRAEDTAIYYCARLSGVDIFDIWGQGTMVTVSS VL: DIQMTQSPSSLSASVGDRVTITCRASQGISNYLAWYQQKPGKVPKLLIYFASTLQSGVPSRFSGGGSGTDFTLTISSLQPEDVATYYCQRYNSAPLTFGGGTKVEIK

>  <ANSWER_LABEL>
false (0)

$$$$
>  <BINDER>
H1H6960N (antibody, human IgG1, V domains shown, Tested with human IgG1 Fc (H1H); also called H2M6960N) VH: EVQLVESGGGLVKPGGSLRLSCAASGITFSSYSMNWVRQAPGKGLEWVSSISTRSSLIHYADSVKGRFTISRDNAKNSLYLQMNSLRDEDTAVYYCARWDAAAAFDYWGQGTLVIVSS VL: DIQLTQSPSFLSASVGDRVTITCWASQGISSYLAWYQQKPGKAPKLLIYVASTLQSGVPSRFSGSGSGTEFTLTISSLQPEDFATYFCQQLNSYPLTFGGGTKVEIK

>  <ANSWER_LABEL>
false (0)

$$$$
>  <BINDER>
H1H6797P (antibody, human IgG1, V domains shown, Human IgG1 Fc (H1H)) VH: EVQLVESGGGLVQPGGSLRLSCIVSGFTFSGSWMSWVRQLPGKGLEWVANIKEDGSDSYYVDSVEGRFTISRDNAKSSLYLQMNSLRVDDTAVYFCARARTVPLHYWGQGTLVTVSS VL: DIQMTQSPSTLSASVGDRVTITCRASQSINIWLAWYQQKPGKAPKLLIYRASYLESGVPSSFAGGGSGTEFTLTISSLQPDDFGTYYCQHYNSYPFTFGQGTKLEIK

>  <ANSWER_LABEL>
true (1)

$$$$
>  <BINDER>
H1H6795P (antibody, human IgG1, V domains shown, Human IgG1 Fc (H1H)) VH: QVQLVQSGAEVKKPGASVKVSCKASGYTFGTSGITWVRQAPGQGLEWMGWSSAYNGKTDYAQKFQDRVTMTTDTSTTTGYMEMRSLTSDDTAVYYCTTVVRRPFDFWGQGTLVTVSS VL: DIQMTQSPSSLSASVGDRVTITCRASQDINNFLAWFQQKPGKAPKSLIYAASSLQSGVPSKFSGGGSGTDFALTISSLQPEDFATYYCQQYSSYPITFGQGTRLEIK

>  <ANSWER_LABEL>
true (1)

$$$$

We now examine a further binder.
Q) Exam item: decide whether the reported kon for H1H6958N2 (antibody, human IgG1, V domains shown, Tested with human IgG1 Fc (H1H); also called H2M6958N2) VH: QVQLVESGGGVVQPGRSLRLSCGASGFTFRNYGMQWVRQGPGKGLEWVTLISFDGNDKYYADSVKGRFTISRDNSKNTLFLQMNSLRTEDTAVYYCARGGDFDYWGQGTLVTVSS VL: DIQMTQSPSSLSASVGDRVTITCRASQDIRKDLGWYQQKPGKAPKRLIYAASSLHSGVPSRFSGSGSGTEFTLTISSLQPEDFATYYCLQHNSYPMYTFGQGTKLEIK is at least 400000 M⁻¹ s⁻¹.
A) true (1)
